# Test system: MDA-MB-435
# test.summary: NCI tumour cell line growth inhibition, 48 h
Activity calls are given as the source filed them. Rule as the data show it: active = GI50 up to about 1.1 µM and inactive = higher.
Result category, one only: active, inactive

Q: What outcome does the record of this test show for CSC1SCC2C(=O)N(C)C3(CC3C)C(=O)OCC(NC(=O)c3nc4ccccc4cc3O)C(=O)NC(C)C(=O)N(C)C1C(=O)N(C)C1(CC1C)C(=O)OCC(NC(=O)c1nc3ccccc3cc1O)C(=O)NC(C)C(=O)N2C (centres undefined) ?
Result: active

Q: What outcome does the record of this test show for `COC(=O)[C@H]1[C@@H](O)[C@@]2(O)c3c(OC)cc(OC)cc3O[C@@]2(c2ccc3c(c2)OCO3)[C@@H]1c1ccccc1` ?
Result: active

Q: What outcome does the record of this test show for `O=C1CCc2c3c(c4c([nH]c5ccccc54)c2CC1)C(=O)NC3=O` ?
Result: inactive

Q: What outcome does the record of this test show for `CCOC(=O)/C(=C\c1c(C)[nH]c2ccccc12)P(=O)(OCC)OCC` ?
Result: inactive

###

# Test system: COLO 205
# test.summary: NCI tumour cell line growth inhibition, 48 h
Active and inactive are the calls of the source. Cut-off read from the data, not from the text of the source: active = GI50 up to about 1.1 µM and inactive = higher.
Result category, one only: active, inactive

Q: What outcome does the record of this test show for OC1c2ccccc2C2C(O)c3ccccc3C12 (stereo not given) ?
Result: inactive

Q: What outcome does the record of this test show for C=C(C)C1CC/C(C)=C/CC[C@]2(C)O[C@H]2CC/C(COC(C)=O)=C\[C@@H]1O (stereo not given in full) ?
Result: inactive

Q: What outcome does the record of this test show for `Cc1ccc(C)c2c1C/C(=C\c1ccccc1C(=O)O)C2=O` ?
Result: inactive

Q: What outcome does the record of this test show for `Cc1c(Cl)c(C)c(Cl)c(O)c1Cl` ?
Result: inactive

Q: What outcome does the record of this test show for `CC(=O)O[C@H]1C(=O)[C@@]2(C)[C@H]([C@H](OC(=O)C3CCCCC3)[C@]3(O)C[C@H](OC(=O)[C@H](O)[C@@H](NC(=O)OC(C)(C)C)c4ccccc4)C(C)=C1C3(C)C)[C@]1(OC(C)=O)CO[C@@H]1C[C@@H]2O` ?
Result: active

Q: What outcome does the record of this test show for `Cc1cc2c(cc1C)C(=O)/C(=N/Nc1ccc(F)cc1)CCO2` ?
Result: inactive

Q: What outcome does the record of this test show for `CN(C)CCNCc1c2ccccc2c(CNCCN(C)C)c2ccccc12` ?
Result: inactive

Q: What outcome does the record of this test show for `Cc1nc(C)c(N2CCN(C(=O)O)CC2)c(O)n1` ?
Result: inactive

Q: What outcome does the record of this test show for O=C(O)c1ccccc1CC(Cc1ccccc1)C(=O)O (stereo not given) ?
Result: inactive

Q: What outcome does the record of this test show for O=[N+]([O-])c1ccc2c3ccccc3[s+]([O-])c2c1 (stereo not given) ?
Result: inactive

Q: What outcome does the record of this test show for COc1cc2c(cc1OC)[C@@](C)(C(O)C(O)C(C)(C)O)NCC2 (stereo not given in full) ?
Result: inactive

Q: What outcome does the record of this test show for COC(=O)[C@@H]1CS(=O)(=O)C(C(C)C)N1C(C)=O (stereo not given in full) ?
Result: inactive

Q: What outcome does the record of this test show for `CCN(CC)CCNC(=O)c1ccc([N+](=O)[O-])cc1OC` ?
Result: inactive

Q: What outcome does the record of this test show for `Cc1c(CN)c(C)c(CN)c(C)c1CN` ?
Result: inactive

Q: What outcome does the record of this test show for `CSc1cc(Br)ccc1-n1c(C(=O)c2ccccc2)c(SC)n(-c2ccccc2)c1=O` ?
Result: inactive

Q: What outcome does the record of this test show for `CCOC(=O)C1C(c2ccccc2)=C(c2ccccc2)C(c2ccccc2)=C1c1ccccc1` ?
Result: inactive

Q: What outcome does the record of this test show for `Cc1ccc2c(c1)[nH]c(=S)n2/C=C1\C(=O)Oc2ccccc2C1=O` ?
Result: inactive

Q: What outcome does the record of this test show for `COc1ccc(-c2oc3cc(O)cc(O)c3c(=O)c2OC)cc1` ?
Result: inactive

Q: What outcome does the record of this test show for `COc1cc2c3cc1Oc1c(O)c(OC)cc4c1[C@H](Cc1ccc(cc1)Oc1cc(ccc1O)C[C@H]3N(C)CC2)N(C)CC4` ?
Result: inactive

Q: What outcome does the record of this test show for FC(F)(F)c1ccccc1C1SCc2nc3ccccc3n21 (stereo not given) ?
Result: inactive

Q: What outcome does the record of this test show for COC(=O)C(Cc1ccccc1)NS(=O)(=O)c1ccc(-c2c3nc(c(-c4ccc(S(=O)(=O)NC(Cc5ccccc5)C(=O)OC)cc4)c4ccc([nH]4)c(-c4ccc(S(=O)(=O)NC(Cc5ccccc5)C(=O)OC)cc4)c4nc(c(-c5ccc(S(=O)(=O)NC(Cc6ccccc6)C(=O)OC)cc5)c5ccc2[nH]5)C=C4)C=C3)cc1 (stereo not given) ?
Result: inactive

Q: What outcome does the record of this test show for `Cn1c2c(cc(-c3ccccc3)c1=O)COc1ccccc1-2` ?
Result: inactive

Q: What outcome does the record of this test show for `O=C1NC2=NOC(=O)NC2=NO1` ?
Result: inactive

Q: What outcome does the record of this test show for `COc1ccc2[nH]c(=O)cc(C)c2c1[N+](=O)[O-]` ?
Result: inactive

Q: What outcome does the record of this test show for `C(=N\CC/N=C/c1cccc2ccccc12)/c1cccc2ccccc12` ?
Result: inactive

Q: What outcome does the record of this test show for S=C1NC(c2ccccc2)NC(c2ccccc2)S1 (stereo not given) ?
Result: inactive

Q: What outcome does the record of this test show for `C[C@@H]1O[C@@H](O[C@H]2[C@H](Oc3cc(O)c4c(=O)cc(-c5ccc(O)cc5)oc4c3)O[C@H](CO)[C@@H](O)[C@@H]2O)[C@H](O)[C@H](O)[C@H]1O` ?
Result: inactive

Q: What outcome does the record of this test show for CCOC(=O)C1C(=O)CC(C)(O)C(C(=O)OCC)C1c1ccc(O)c(OC)c1 (stereo not given) ?
Result: inactive

Q: What outcome does the record of this test show for `Cc1ccc(NC(Nc2ccc(C)cc2C)=C(/C=C(\Cl)[N+](=O)[O-])[N+](=O)[O-])c(C)c1` ?
Result: inactive

Q: What outcome does the record of this test show for CCOC(=O)C(C(=O)OCC)=C1NC2(c3ccccc3Nc3ccccc32)C(C#N)S1 (stereo not given) ?
Result: inactive

Q: What outcome does the record of this test show for `Oc1ccc(Cl)cc1CN1CCN(Cc2cc(Cl)ccc2O)C1` ?
Result: inactive

Q: What outcome does the record of this test show for CC12CCCCC1(C)C2Sc1ccccc1 (stereo not given) ?
Result: inactive

Q: What outcome does the record of this test show for `Oc1ccccc1/C=N/c1ccccc1/N=C/c1ccccc1O` ?
Result: inactive

Q: What outcome does the record of this test show for `O=c1cc[nH]c2ccc3nn[nH]c3c12` ?
Result: inactive

Q: What outcome does the record of this test show for C[C@]12CC[C@@H]3c4cc(C=O)c(OCc5ccccc5)cc4CC[C@H]3[C@@H]1CCC2OCc1ccccc1 (stereo not given in full) ?
Result: inactive

Q: What outcome does the record of this test show for OCC(O)C(O)C(O)C1SC(c2ccccc2)=NN1c1ccccc1 (stereo not given) ?
Result: inactive

Q: What outcome does the record of this test show for `N/C(=N\n1c(=S)[nH]c2ccccc2c1=O)Nn1c(=S)[nH]c2ccccc2c1=O` ?
Result: inactive

Q: What outcome does the record of this test show for CC12CCCCC1=C(F)C(F)(F)S2 (stereo not given) ?
Result: inactive

Q: What outcome does the record of this test show for OC1(C2(c3ccc(Cl)cc3)CCCC2)c2ccccc2C2=NCCN21 (stereo not given) ?
Result: inactive

Q: What outcome does the record of this test show for N#CCC1COc2ccccc2O1 (stereo not given) ?
Result: inactive

Recorded values, source ChEMBL document CHEMBL1201862.
